Ki, anthrax lethal factor (LF) protease (Bacillus anthracis, UniProt P15917): measured values
MEASURE NAME: Ki (µM)

COMPOUND	VAL
NC(N)=NCCC[C@H](NC(=O)[C@H](CCCN=C(N)N)NC(=O)[C@H](CCCN=C(N)N)NC(=O)[C@H](CCCN=C(N)N)NC(=O)[C@H](CCCN=C(N)N)NC(=O)[C@@H](N)CCCN=C(N)N)C(=O)O [H-RRRRRR-OH]	0.24
NC[C@H]1O[C@H](O[C@H]2[C@H](O)[C@@H](O)[C@H](N)C[C@@H]2N)[C@H](N)[C@@H](O)[C@@H]1O [Neamine (free base), Neamine]	31.1
CN[C@@H]1[C@@H](O[C@H]2O[C@H](CO)[C@@H](N)[C@H](O)[C@H]2O)OC2C[C@@H](N)[C@@H](O[C@H]3[C@H](O)[C@@H](O)[C@H](N)C[C@@H]3N)OC2[C@@H]1O (stereo partly shown) [Apramycin]	111
N=C(N)NC[C@@H]1O[C@H](O[C@H]2[C@@H](O)[C@H](O[C@@H]3[C@@H](O)[C@H](NC(=N)N)C[C@H](NC(=N)N)[C@H]3O[C@H]3O[C@H](CNC(=N)N)[C@@H](O)[C@H](O)[C@H]3NC(=N)N)O[C@@H]2CO)[C@H](NC(=N)N)[C@@H](O)[C@@H]1O	0.03

---

TESTED SYSTEM: botulinum neurotoxin/A (BoNT/A) (Clostridium botulinum)
Sequence (P0DPI1 whole entry, looked up): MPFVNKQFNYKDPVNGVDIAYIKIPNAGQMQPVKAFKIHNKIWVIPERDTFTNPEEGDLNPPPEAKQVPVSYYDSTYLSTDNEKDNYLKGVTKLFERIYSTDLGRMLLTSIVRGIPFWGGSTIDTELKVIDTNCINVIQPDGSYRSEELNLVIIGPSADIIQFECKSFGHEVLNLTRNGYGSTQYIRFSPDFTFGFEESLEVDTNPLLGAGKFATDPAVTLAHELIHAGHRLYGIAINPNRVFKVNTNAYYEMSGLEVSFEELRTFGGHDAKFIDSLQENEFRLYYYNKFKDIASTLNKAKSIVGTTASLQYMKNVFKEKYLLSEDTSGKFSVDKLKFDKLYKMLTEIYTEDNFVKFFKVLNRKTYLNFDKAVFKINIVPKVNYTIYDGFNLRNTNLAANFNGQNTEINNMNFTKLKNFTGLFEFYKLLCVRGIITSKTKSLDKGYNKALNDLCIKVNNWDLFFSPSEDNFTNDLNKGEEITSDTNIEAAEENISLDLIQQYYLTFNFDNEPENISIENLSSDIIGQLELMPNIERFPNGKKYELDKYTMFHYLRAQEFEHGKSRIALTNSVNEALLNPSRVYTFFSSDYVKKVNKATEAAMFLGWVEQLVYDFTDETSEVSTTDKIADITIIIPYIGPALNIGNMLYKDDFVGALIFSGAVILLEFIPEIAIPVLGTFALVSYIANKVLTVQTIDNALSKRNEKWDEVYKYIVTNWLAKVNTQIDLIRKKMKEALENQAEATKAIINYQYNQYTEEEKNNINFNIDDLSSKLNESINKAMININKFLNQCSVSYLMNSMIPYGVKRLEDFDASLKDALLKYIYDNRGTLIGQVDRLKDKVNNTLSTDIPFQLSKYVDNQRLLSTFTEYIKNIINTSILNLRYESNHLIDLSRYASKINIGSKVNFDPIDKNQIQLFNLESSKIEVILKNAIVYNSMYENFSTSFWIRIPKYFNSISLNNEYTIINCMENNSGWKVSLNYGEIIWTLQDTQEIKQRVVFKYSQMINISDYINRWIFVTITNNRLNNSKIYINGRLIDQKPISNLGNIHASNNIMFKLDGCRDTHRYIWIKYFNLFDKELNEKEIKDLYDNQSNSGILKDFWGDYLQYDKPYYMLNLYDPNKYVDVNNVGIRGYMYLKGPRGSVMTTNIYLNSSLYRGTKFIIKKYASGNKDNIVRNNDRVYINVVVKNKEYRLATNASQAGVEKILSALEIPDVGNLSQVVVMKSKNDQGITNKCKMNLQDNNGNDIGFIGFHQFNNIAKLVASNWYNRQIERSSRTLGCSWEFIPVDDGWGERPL
PROTOCOL SUMMARY: biochemical
Where a name gives a salt, the structure may show the parent alone.
MEASURE NAME: Ki (µM)

COMPOUND	TESTED SYSTEM	MEASURE NAME	VAL
NCCCNCCCCNCCCN [Spermine, diphosphate salt]	botulinum neurotoxin/A (BoNT/A) (Clostridium botulinum)	Ki	46

---

TESTED SYSTEM: cathepsin D (Homo sapiens, UniProt P07339)
Sequence (P07339 65-412, species assumed): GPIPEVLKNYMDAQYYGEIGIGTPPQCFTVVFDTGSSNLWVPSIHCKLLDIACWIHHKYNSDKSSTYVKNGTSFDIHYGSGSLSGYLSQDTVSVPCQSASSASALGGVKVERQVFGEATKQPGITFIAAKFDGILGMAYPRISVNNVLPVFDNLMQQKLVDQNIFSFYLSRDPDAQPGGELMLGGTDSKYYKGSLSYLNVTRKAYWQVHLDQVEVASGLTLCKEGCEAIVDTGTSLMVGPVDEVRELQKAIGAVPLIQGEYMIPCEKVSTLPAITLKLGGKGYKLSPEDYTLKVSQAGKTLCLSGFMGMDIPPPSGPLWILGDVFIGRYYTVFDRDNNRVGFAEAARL
Counter-ions that a name gives are not always drawn.

COMPOUND	IC50
NCCCNCCCCNCCCN [Spermine, diphosphate salt]	> 500 µM

---

TESTED SYSTEM: botulinum neurotoxin/A (BoNT/A) (Clostridium botulinum)
PROTOCOL SUMMARY: biochemical
Structures can show the parent of a compound that is named as a salt.
MEASURE NAME: IC50 (µM)

COMPOUND	MEASURE NAME	VALUE PREFIX	VAL
NCCCNCCCCNCCCN [Spermine, diphosphate salt]	IC50	=	57
NC[C@@H]1O[C@H](O[C@H]2[C@@H](O)[C@H](O[C@@H]3[C@@H](O)[C@H](N)C[C@H](N)[C@H]3O[C@H]3O[C@H](CN)[C@@H](O)[C@H](O)[C@H]3N)O[C@@H]2CO)[C@H](N)[C@@H](O)[C@@H]1O [Neomycin B tris-sulfate]	IC50	=	92.5
NCCCCN	IC50	>	300
CN[C@@H]1[C@@H](O[C@H]2O[C@H](CO)[C@@H](N)[C@H](O)[C@H]2O)OC2C[C@@H](N)[C@@H](O[C@H]3[C@H](O)[C@@H](O)[C@H](N)C[C@@H]3N)OC2[C@@H]1O (stereo partly drawn)	IC50	>	300
NC[C@H]1O[C@H](O[C@H]2[C@H](O)[C@@H](O)[C@H](N)C[C@@H]2N)[C@H](N)[C@@H](O)[C@@H]1O [Neamine (free base), Neamine]	IC50	=	175
CN[C@@H]1[C@@H](O)[C@@H](O[C@@H]2[C@@H](O)[C@H](O[C@H]3OC(CN)=CC[C@H]3N)[C@@H](N)C[C@H]2N)OC[C@]1(C)O [Sisomicin Sulfate]	IC50	>	300
